assay.system: Transcriptional coactivator YAP1/Transcriptional enhancer factor TEF-1 (Homo sapiens)
test.details: Inhibition of YAP/ GST-TEAD1 (unknown origin) interaction by surface plasmon resonance assay
reported.property: pIC50
Give bare numbers, as −log10 of the molar value.

>  <structure>
CCCCCC[C@@H]1NC(=O)[C@H](CCCCN)NC(=O)[C@H](CCCNC(=N)N)NC(=O)[C@H](CC(C)C)NC(=O)[C@@H](NC(=O)[C@H](CCSC)NC(=O)[C@@H]2CCCN2C(=O)[C@@H](NC(C)=O)C(C)C)CCSSC[C@@H](C(=O)N[C@@H](CCCCN)C(=O)N2CCC[C@H]2C(=O)N2CCC[C@H]2C(=O)N[C@@H](CCC(=O)O)C(N)=O)NC(=O)[C@H](Cc2ccccc2)NC(=O)[C@H](CO)NC(=O)[C@H](C)NC(=O)[C@@H]2CCCN2C1=O

>  <pIC50>
6.43

$$$$

Now let's try a different one.
Input line: Data request, read-out pIC50, for "CSCC[C@H](NC(=O)[C@@H]1CCCN1C(=O)[C@@H](NC(C)=O)C(C)C)C(=O)N[C@H]1CCSSC[C@@H](C(=O)N[C@@H](CCCCN)C(=O)N2CCC[C@H]2C(=O)N2CCC[C@H]2C(=O)N[C@@H](CCC(=O)O)C(N)=O)NC(=O)[C@H](Cc2ccccc2)NC(=O)[C@H](CO)NC(=O)[C@H](C)NC(=O)[C@@H]2CCCN2C(=O)[C@H](CC(C)C)NC(=O)[C@H](CCCCN)NC(=O)[C@H](CCCNC(=N)N)NC(=O)[C@H](CC(C)C)NC1=O"
Output line: 5.82

###

assay.system: Transcriptional coactivator YAP1/Transcriptional enhancer factor TEF-1 (Homo sapiens, UniProt P28347)
Sequence (P46937 whole entry): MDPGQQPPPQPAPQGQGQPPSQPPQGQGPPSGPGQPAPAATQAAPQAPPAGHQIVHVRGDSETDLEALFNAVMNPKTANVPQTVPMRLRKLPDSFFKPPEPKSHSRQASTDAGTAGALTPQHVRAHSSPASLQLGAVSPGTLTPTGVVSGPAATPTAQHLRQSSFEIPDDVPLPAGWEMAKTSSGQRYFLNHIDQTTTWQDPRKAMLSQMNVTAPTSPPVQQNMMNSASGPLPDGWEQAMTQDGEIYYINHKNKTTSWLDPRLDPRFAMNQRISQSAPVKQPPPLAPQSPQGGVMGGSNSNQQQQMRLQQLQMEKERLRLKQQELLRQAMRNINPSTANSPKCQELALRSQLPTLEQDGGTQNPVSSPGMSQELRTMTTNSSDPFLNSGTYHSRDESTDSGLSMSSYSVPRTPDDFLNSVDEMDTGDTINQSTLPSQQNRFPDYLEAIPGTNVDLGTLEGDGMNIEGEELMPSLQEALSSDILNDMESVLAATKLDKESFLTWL
Sequence (P28347 whole entry): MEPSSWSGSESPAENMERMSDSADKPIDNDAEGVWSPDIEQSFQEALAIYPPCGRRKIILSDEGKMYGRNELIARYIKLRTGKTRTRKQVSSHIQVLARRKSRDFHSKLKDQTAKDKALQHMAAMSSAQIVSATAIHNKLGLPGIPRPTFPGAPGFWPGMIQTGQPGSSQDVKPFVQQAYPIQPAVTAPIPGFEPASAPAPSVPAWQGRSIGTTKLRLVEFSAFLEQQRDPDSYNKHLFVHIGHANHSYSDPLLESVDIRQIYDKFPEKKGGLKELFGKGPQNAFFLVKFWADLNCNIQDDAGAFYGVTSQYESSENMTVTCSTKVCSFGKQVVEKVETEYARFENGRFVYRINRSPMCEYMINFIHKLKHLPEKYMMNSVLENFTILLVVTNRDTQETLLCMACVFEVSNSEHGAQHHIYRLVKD
test.details: Inhibition of YAP/ GST-TEAD1 (unknown origin) interaction by surface plasmon resonance assay
Record form. Attribute: IC50. Fill in for each entry.
Give bare numbers, in µM.

Example compounds with recorded IC50:
>  <structure>
CCCC[C@@H]1NC(=O)[C@H](CCCCN)NC(=O)[C@H](CCCNC(=N)N)NC(=O)[C@H](CC(C)C)NC(=O)[C@@H](NC(=O)[C@H](CCSC)NC(=O)[C@@H]2CCCN2C(=O)[C@@H](NC(C)=O)C(C)C)CCSSC[C@@H](C(=O)N[C@@H](CCCCN)C(=O)N2CCC[C@H]2C(=O)N2CCC[C@H]2C(=O)N[C@@H](CCC(=O)O)C(N)=O)NC(=O)[C@H](Cc2ccccc2)NC(=O)[C@H](CO)NC(=O)[C@H](C)NC(=O)[C@@H]2CCCN2C1=O

>  <IC50 / µM>
0.15

$$$$
>  <structure>
CCCC[C@@H]1NC(=O)[C@H](CCCCN)NC(=O)[C@H](CCCNC(=N)N)NC(=O)[C@H](CC(C)C)NC(=O)[C@@H](NC(=O)[C@H](CCSC)NC(=O)[C@@H]2CCCN2C(=O)[C@@H](NC(C)=O)C(C)C)CCSSC[C@@H](C(=O)N[C@@H](CCCCN)C(=O)N2CCC[C@H]2C(=O)N2CCC[C@H]2C(=O)N[C@@H](CCC(=O)O)C(N)=O)NC(=O)[C@H](Cc2ccc(F)cc2)NC(=O)[C@H](CO)NC(=O)[C@H](C)NC(=O)[C@@H]2CCCN2C1=O

>  <IC50 / µM>
0.075

$$$$
>  <structure>
CSCC[C@H](NC(=O)[C@@H]1CCCN1C(=O)[C@@H](NC(C)=O)C(C)C)C(=O)N[C@H]1CCSSC[C@@H](C(=O)N[C@@H](CCCCN)C(=O)N2CCC[C@H]2C(=O)N2CCC[C@H]2C(=O)N[C@@H](CCC(=O)O)C(N)=O)NC(=O)[C@H](Cc2ccccc2)NC(=O)[C@H](CO)NC(=O)[C@H](C)NC(=O)[C@@H]2CCCN2C(=O)[C@H](CCC(C)C)NC(=O)[C@H](CCCCN)NC(=O)[C@H](CCCNC(=N)N)NC(=O)[C@H](CC(C)C)NC1=O

>  <IC50 / µM>
0.62

$$$$

Now consider the entry below.
Input line: I am curious: what IC50 value has been reported for "CCCC[C@@H]1NC(=O)[C@H](CCCCN)NC(=O)[C@H](CCCNC(=N)N)NC(=O)[C@H](CC(C)C)NC(=O)[C@@H](NC(=O)[C@H](Cc2ccc(Cl)cc2)NC(=O)[C@@H]2CCCN2C(=O)[C@@H](NC(C)=O)C(C)C)CCSSC[C@@H](C(=O)N[C@@H](CCCCN)C(=O)N2CCC[C@H]2C(=O)N2CCC[C@H]2C(=O)N[C@@H](CCC(=O)O)C(N)=O)NC(=O)[C@H](Cc2ccccc2)NC(=O)[C@H](CO)NC(=O)[C@H](C)NC(=O)[C@@H]2CCCN2C1=O" ?
Output line: 0.53
